The origin of these recorded values is patent US20240247080A1.

# target.under.test: T1, NPY2 receptor (human (printed as hNPY2R), UniProt P49146 1-381)
# T1 sequence (looked up): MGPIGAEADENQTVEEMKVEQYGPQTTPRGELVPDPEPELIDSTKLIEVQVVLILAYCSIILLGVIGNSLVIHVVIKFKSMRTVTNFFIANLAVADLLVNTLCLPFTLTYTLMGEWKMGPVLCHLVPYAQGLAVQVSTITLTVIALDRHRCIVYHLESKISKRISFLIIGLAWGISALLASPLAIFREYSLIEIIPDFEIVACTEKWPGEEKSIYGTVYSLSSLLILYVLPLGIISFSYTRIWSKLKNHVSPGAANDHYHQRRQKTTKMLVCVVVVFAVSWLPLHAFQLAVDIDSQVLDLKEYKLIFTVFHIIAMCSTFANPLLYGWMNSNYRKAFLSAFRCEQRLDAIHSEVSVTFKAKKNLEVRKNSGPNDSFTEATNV
# method.description: cell-based or functional assay
Non-standard residues stand in square brackets, D forms with d. No end group written: not given here. Aib = CC(C)(N)C(=O)O
parameter.measured: EC50 hNPY2R 0.5% hP (CreLuc) (nM)
Numbers only, in nM.

Study these solved cases before continuing.
State, in one line, measured EC50 hNPY2R 0.5% hP (CreLuc) of YXEGTFTSDYSIXLEKQAQXAFVEWLIKGGPSSGASLRHYYNXLTRQRY (Aib at 2, 13, 20, 43; K28 side chain carries C20DA-gGlu-gGlu-gGlu-gGlu-gGlu-gGlu-eLys; C-terminal amide) [Compound 218] 87.4

Given the binder Y[Aib]EGTFTSDYSI[Aib]LEKQAQ[Aib]AFVEWLIKGGPSSPASLRHYYNWLTRQRY-NH2 (not fully specified (residue 28); also: TFA salt) [Compound 178] , write its reported EC50 hNPY2R 0.5% hP (CreLuc). 13.3

Next:
Identify measured EC50 hNPY2R 0.5% hP (CreLuc) corresponding to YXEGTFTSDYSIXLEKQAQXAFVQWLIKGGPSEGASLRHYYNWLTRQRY (Aib at 2, 13, 20; K28 side chain carries C18DA-gGlu-gGlu-gGlu-gGlu-gGlu; C-terminal amide) [Compound 250] 12.2
